target: Sm (Smith antigen); experiment: AtheNA, Ab 6.25 ug/ml
measured.property: Athena reading (relative luminescence units)

[[record]]
binder = "CH240_4A/293i (antibody, from a related filing, V domains shown) VH: QVQLVQSGTEVRKPGASVTISCKASGYTFNNFYVHWVRQAPGQGLECMGWIDPSVGRISYGQKFQGRVTMTRDRSTSTVYMGLSSLRSEDTAMYYCVRDVGTEGSLLHFDHWGQGTLVIVSA VL: EIVLTQSPATLSVSPGERATLSCRATQSVRSNLAWYQQKRGQAPRLLIYSASTRATGIPARFSGSGSGTEFTLTISSVQSEDFAVYYCLQYNNWWTFGQGTKVEIK"
test_result = 9


**Query** GET /values?readout=Athena reading (relative luminescence units)&item= CH239_4A/293i (antibody, from a related filing, V domains shown) VH: QVQLVQSGAEVRKPGASVTVSCKASGYTFNNFYVHWVRQAPGQGLECMGWIDPSVGRINYAQKFQGRVTMTRDRSTSTVYMGLSSLRSEDTAIYYCVRDVGTEGSLLHFDHWGQGTLVIVSA VL: EIVLTQSPATLSVSPGERATLSCRATQSVRSNVAWYQQKPGQAPRLLIYSASTRATGIPARFSGSGSGTEFTLTIASMQSEDFAVYYCLQYDDWWTFGQGTKVEIK
**Result** 285

**Query** GET /values?readout=Athena reading (relative luminescence units)&item= CH241 (antibody, from a related filing, V domains shown) VH: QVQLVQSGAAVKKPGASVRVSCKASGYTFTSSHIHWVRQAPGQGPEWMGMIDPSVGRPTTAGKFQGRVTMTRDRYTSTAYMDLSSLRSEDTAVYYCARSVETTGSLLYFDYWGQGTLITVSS VL: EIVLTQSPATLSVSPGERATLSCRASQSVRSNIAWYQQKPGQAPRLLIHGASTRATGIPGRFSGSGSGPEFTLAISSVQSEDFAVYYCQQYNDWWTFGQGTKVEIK
**Result** 4
